Target: T1, human 5T4 (trophoblast glycoprotein), endogenous on the cell surface (human, UniProt Q13641 32-420)
T1 construct: also called TPBG; 5T4 oncofetal antigen
T1 sequence: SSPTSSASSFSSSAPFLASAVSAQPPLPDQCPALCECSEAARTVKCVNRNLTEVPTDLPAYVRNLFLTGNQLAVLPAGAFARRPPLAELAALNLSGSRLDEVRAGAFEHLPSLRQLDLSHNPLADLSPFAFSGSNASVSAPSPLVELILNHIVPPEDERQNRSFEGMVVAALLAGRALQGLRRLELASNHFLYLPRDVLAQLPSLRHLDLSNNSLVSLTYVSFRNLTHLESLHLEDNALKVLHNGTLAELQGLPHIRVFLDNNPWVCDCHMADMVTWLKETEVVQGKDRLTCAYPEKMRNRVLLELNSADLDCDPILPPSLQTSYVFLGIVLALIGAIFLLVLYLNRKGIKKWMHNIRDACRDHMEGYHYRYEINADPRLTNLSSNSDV
Assay: flow cytometry (FL4H median), sdAb-Fc titrated on 5T4-positive T47D cells
Would you kindly list EC50 (read off the curve) for each of these binders?

[Q] Consider the binder 14B5 sdAb-Fc (Fc fusion, not shown: a dimerising Fc or GST, Camelid derived sdAb tested as sdAb-Fc; also called L14B5) QVQLVQSGGGLVQAGDSLTLSCAVSERPFGTYAMGWFRQAPGRERDLVAAVSRNGGASQYGDSVKGRFSISRDNIKNTMYLQMNSLKPEDTAVYYCAARSAAYSRSSEVYTGKDEYYYWGQGTQVTVKP . State its measured EC50 (read off the curve).
[A] ~0.4 nM

Turning to the following binder.
[Q] Consider the binder hz12E9v3 sdAb-Fc (Fc fusion, Humanized variant of 12E9, linked to a human Fc; not shown: human Fc) EVQLVESGGGEVQPGGSLRLSCAASRRPFSSKTMAWFRQAPGKEREFVAAVRWIGGATRYAESVKGRFTISRDNAKNTVYLQMSSLRAEDTAVYYCAAGQAWGTKFTDYSDWGQGTLVTVKP . State its measured EC50 (read off the curve).
[A] ~0.2 nM
